Origin of values: PubChem BioAssay AID449762

Known IC90 of a selection of compounds
# System: M. tuberculosis H37Rv growth inhibition, 7H9 media
# assay.remarks: M. tuberculosis growth inhibition, HTS (AID 449762);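 note: bacterial growth assessed after seven days of incubation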
# assay.setup: measured here: IC90 growth inhibition
Inconclusive results are not listed.

Some entries whose results are on file:
>  <compound>
COc1ccc(OC)c(Nc2nc(-c3sc(C)nc3C)cs2)c1

>  <IC90>
> 100 µM

$$$$
>  <compound>
CCOC(=O)C(C)Oc1ccc(OCc2ccccc2)cc1 (configuration not stated)

>  <IC90>
10.9 µM

$$$$
>  <compound>
COc1ccc(-c2ccnc3nc(N4CCN(c5ccccc5)CC4)nn23)cc1

>  <IC90>
47.9 µM

$$$$
>  <compound>
CC(C)(C)C(=O)NC(=S)NNC(=O)c1sc2ccccc2c1Cl

>  <IC90>
> 100 µM

$$$$
>  <compound>
O=C(COc1ccccc1)NNc1nc2ccccc2s1

>  <IC90>
> 100 µM

$$$$
>  <compound>
C=CCc1cc(C)ccc1OCCCC(C(=O)OCC)C(=O)OCC

>  <IC90>
21.4 µM

$$$$
>  <compound>
Cc1nn(-c2ccccc2)c(N)c1C(c1ccc(C(C)C)cc1)c1c(C)nn(-c2ccccc2)c1N

>  <IC90>
27.1 µM

$$$$
>  <compound>
CCCOC(=O)c1ccc(-c2ccc(C=O)o2)cc1

>  <IC90>
> 100 µM

$$$$
>  <compound>
CCOc1ccc2nc(/N=C/c3nc(-c4ccccc4)oc3O)sc2c1

>  <IC90>
> 100 µM

$$$$
>  <compound>
Cc1ccc(OC/C(O)=C(\C#N)c2nc3ccccc3s2)cc1

>  <IC90>
34 µM

$$$$

Prompt: Which measured IC90 value corresponds to `Cc1ccnc(N2CCC(C(=O)Nc3cccc(C(F)(F)F)c3)CC2)n1` ?
Completion: > 100 µM

Prompt: Which measured IC90 value corresponds to Cc1ccc(C)c(NC(CC(=O)c2ccccc2)C(=O)OCC(=O)c2cccs2)c1 (configuration not stated) ?
Completion: 7.68 µM

###

Known log10(IC90) of a selection of compounds
# System: M. tuberculosis H37Rv growth inhibition, 7H9 media
# assay.remarks: M. tuberculosis growth inhibition, HTS (AID 449762);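 note: bacterial growth assessed after seven days of incubation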
# assay.setup: measured here: IC90 growth inhibition
Inconclusive results are not listed.
Remember, log10 of IC90, in µM.

>  <compound>
C=CCc1c(C)nc(SC)nc1Nc1ccc(C(C)=O)cc1

>  <assayed.system>
M. tuberculosis H37Rv growth inhibition, 7H9 media

>  <readout.kind>
log10(IC90)

>  <test.value>
1.51

$$$$
>  <compound>
CCCNC1=C(N(C(C)=O)c2cccc(F)c2)C(=O)c2ccccc2C1=O

>  <assayed.system>
M. tuberculosis H37Rv growth inhibition, 7H9 media

>  <readout.kind>
log10(IC90)

>  <test.value>
1.30

$$$$
>  <compound>
Cc1nn(CCc2nn[nH]n2)c2nc(-c3ccc(Br)cc3)cc(C(F)(F)F)c12

>  <assayed.system>
M. tuberculosis H37Rv growth inhibition, 7H9 media

>  <readout.kind>
log10(IC90)

>  <test.value>
1.03

$$$$
>  <compound>
Cc1ccc(CN2CCN(/N=C/c3ccc(Cl)c([N+](=O)[O-])c3)CC2)cc1

>  <assayed.system>
M. tuberculosis H37Rv growth inhibition, 7H9 media

>  <readout.kind>
log10(IC90)

>  <test.value>
1.56

$$$$
>  <compound>
Cc1cccc(C)c1Nc1c(-c2ccccn2)nc2ccccn12

>  <assayed.system>
M. tuberculosis H37Rv growth inhibition, 7H9 media

>  <readout.kind>
log10(IC90)

>  <test.value>
0.76

$$$$

Prompt: Which measured log10(IC90) value corresponds to `COc1cccc(NC(=O)C2CCN(Cc3cnn(-c4ccccc4)c3-n3cccc3)CC2)c1` ?
Completion: 1.75

Prompt: Which measured log10(IC90) value corresponds to O=C(CSC1=Nc2ccccc2C2=NC(c3ccccc3)C(=O)N12)NC1CCCCC1 (stereo unspecified) ?
Completion: 0.11
